Recorded values, source patent US20170334973A1.

Molecular target: T1, EBOV VLP (Ebola virus (EBOV), UniProt Q05320 33-676)
T1 sequence: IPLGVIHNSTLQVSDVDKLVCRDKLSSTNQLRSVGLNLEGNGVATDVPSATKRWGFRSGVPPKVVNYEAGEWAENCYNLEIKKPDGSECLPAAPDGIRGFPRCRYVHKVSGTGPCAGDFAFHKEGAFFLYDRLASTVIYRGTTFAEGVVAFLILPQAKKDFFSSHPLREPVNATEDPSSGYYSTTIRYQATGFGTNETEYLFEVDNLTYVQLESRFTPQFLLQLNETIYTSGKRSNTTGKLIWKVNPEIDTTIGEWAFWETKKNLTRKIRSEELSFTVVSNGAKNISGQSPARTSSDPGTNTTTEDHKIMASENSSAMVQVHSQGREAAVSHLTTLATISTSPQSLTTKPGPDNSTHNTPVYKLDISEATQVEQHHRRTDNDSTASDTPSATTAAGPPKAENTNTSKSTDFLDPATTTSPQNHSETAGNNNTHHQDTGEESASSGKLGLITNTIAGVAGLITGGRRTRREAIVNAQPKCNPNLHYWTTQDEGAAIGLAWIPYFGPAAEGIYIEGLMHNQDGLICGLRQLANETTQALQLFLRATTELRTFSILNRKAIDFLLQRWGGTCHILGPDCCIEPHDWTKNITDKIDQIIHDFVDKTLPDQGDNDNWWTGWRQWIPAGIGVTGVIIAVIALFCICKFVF
Assay: ELISA
pEC50: −log10 of the molar value.
The label depends only on pEC50: class 1 if it is at least 9, class 0 if it is smaller.

Binder	Group
FVM02P (antibody, V domains shown) VH: EVQLVESGGGLVQPGGSLRLSCAASGFTGFTFSDYAFYWVRQAPGKGLEWVGFIRGKAYGGTADYAASVKGRFTISRDNSKNTAYLQMSSLKTEDSAVYYCTSQGVTVATPYHWGQGVLVTVSS VL: DIVLTQSPLSLPVTPGEPASISCRSSQSLLHSGGKTYLYWYLQKPGQSPQLLIHEVSNRASGVPDRFSGSGSGTDFTLKISRVEAEDVGVYYCMQGIQLPLTFGGGTKVEIKR	class 1
FVM40 (antibody, V domains shown) VH: EVQLVQSGAEVKRPGESLTISCKTSGYSFTDSWISWVRQMPGKGLEWMGSIYPGDSETKYNPSFQGHVTISADKSVTTTYLKWSSLKASDTATYYCVKGSETWGQGVLVTVSS VL: QPMLTQPASLSASPGASASLTCTFSGGINVAGYNILWYQQKAGSPPRYLLRYKSDSTKDQGSGVPSRFSGSKDASANTGILRISGLQSEDEADYYCAIGHSSGWIFGGGTRLTVL	class 1
FVM34 (antibody, V domains shown) VH: EVQLVESGAEVKRPGESLTISCKTSGYSFTDSWVSWVRQMPGKGLEWMGSIYPGDSETKYNPSFQGHVTISADKSVTTTYLKWSSLKASDTATYYCVKGSETWGQGVLVTVSS VL: QPVLTQPASLSASPGASASLTCTFSGGINVAGYYIHWYQQKPGSPPRYLLRYKSDSDKHQGSGVPSRFSGSKDASANTGILRISGLQSEDEADYYCAIGHSSGWVFGGGTRLTVL	class 1
FVM05 (antibody, V domains shown) VH: QVQLQESGPGLVKPSETLSLTCAVSGFSISSGYGWSWIRQPPGKGLEWIGYIGGSSGSTSYNPSLKSRVTLSADTSKNQFSLKLSSVTAADTAVYYCARRYSSYRSWFDVWGPGVLVTVSS VL: SSGLTQPRSVSVSPGQTARITCGGDNIGSKSVHWYQQKPPQAPVLVIYADSERPSGIPERFSGSNSGNTATLTISGVEAGDEADYYCQVWDSSSDHWVFGGGTRLTVL	class 0
